Every entry's value here was drawn from patent US8476197B2.

Below, each entry is listed with its recorded Log P.
measurement parameters: pH 2.7
Marks after values point to notes of the source that are not given here.
measured attribute: Log P

>>> print(df.to_string())
                                    compound  measured_attribute    result
 0  CCCCCCC(C)NC(=C(C#N)C(=O)OC)c1sc(C)nc1C(F)(F)F (racemic)               Log P  4.86^[a]
 1  CCOC(=O)C(C#N)=C(NC(C)c1ccc(F)cc1)c1cn(C)nc1C(F)F (mixture of isomers)               Log P  3.21^[a]
 2  CCOC(=O)C(C#N)=C(Nc1ccc(N(C)C)cc1)c1ccsc1Br               Log P  3.76^[a]
 3  CCOC(=O)C(C#N)=C(NC(C)C(=O)OCc1ccccc1)c1cccnc1Cl (centres unmarked)               Log P  3.53^[a]
 4  CCOC(=O)C(C#N)=C(NC(C)C(=O)NC)c1cn(C)nc1C(F)F (centres unmarked)               Log P  1.66^[a]
 5  CCOC(=O)C(C#N)=C(NC(C)CON=C(C)c1ccccc1)c1cn(C)nc1C(F)F (centres unmarked)               Log P  3.83^[a]
 6  COC(=O)C(C#N)=C(NC(C)c1cccs1)c1sc(C)nc1C(F)(F)F (centres unmarked)               Log P  3.46^[a]
 7  CCOC(=O)C(C#N)=C(Nc1ccccc1OC(C)C)c1ccsc1Br               Log P  4.46^[a]
 8  CCOC(=O)C(C#N)=C(NC(C)c1ccccc1)c1sccc1Br (mixture of isomers)               Log P  4.09^[a]
 9  CCOC(=O)C(C#N)=C(Nc1ccccc1SC)c1cn(C)nc1C(F)(F)F               Log P  3.48^[a]
10  CCOC(=O)C(C#N)=C(Nc1ccc(Cl)cc1)c1ccsc1Br               Log P  4.11^[a]
11  CCOC(=O)C(C#N)=C(NC(C(=O)OCC)c1ccccc1)c1cn(C)nc1C(F)F (centres unmarked)               Log P  3.25^[a]
12    CCOC(=O)C(C#N)=C(NCC#N)c1cn(C)nc1C(F)F               Log P  1.79^[a]
13  CCOC(=O)C(C#N)=C(NC(C)c1ccccn1)c1cnn(C)c1C(F)F (centres unmarked)               Log P  2.41^[a]
14  CCOC(=O)C(C#N)=C(NC(C)C1CCCCC1)c1sc(C)nc1C(F)(F)F (centres unmarked)               Log P  4.86^[a]
15  CCOC(=O)C(C#N)=C(NC(C)c1ccccn1)c1c(C(F)F)nn(C)c1Cl (racemic)               Log P  2.81^[a]
16  CCOC(=O)C(C#N)=C(NC(C)CF)c1cn(C)nc1C(F)(F)F (centres unmarked)               Log P  2.72^[a]

----------
measurement parameters: pH 2.7
Marks after values point to notes of the source that are not given here.
Reported Log P values are given for each entry in this list.
measured attribute: Log P

                                    compound    result
 0  CCOC(=O)C(C#N)=C(NC(C)(C)C#Cc1ccc(C#N)cc1)c1sccc1Br  4.16^[a]
 1  CCOC(=O)C(C#N)=C(NC(C)c1ccc(Cl)nc1)c1cccnc1Cl (centres unmarked)   2.8^[a]
 2  CCOC(=O)C(C#N)=C(NC(C)CN1CCCC1)c1cccnc1Cl (mixture of isomers)  3.35^[a]
 3  CCOC(=O)C(C#N)=C(NC(C)c1nccs1)c1cn(C)nc1CC (centres unmarked)  2.35^[a]
 4  CCOC(=O)C(C#N)=C(NC1CSC1)c1cn(C)nc1C(F)F  2.54^[a]
 5  CCN(CC)CC(C)NC(=C(C#N)C(=O)OC)c1cccnc1Cl (centres unmarked)  0.86^[a]
 6  CCOC(=O)C(C#N)=C(NC(c1ccc(N(C)C)cc1)C(F)(F)F)c1cccnc1Cl (racemic)  3.99^[a]
 7  CCOC(=O)C(C#N)=C(NC(C)c1nccs1)c1cn(C)nc1OC (racemic)  2.26^[a]
 8  CCOC(=O)C(C#N)=C(NC(C)CON=C(C)c1ccccc1)c1cccnc1Cl (centres unmarked)  3.96^[a]
 9  CCOC(=O)C(C#N)=C(NC(C)C(C)C)c1cccnc1C(F)(F)F (centres unmarked)  3.62^[a]
10  CCOC(=O)C(C#N)=C(Nc1ccc(C#N)cc1)c1cn(C)nc1C(F)F  2.64^[a]
11  CCOC(=O)C(C#N)=C(NC(C)c1nccs1)c1ccnc2ccccc12 (centres unmarked)   2.5^[a]
12  CCOC(=O)C(C#N)=C(NC1CCC(OCC)CC1)c1cccnc1Cl (centres unmarked)  3.31^[a]
13  CCOC(=O)C(C#N)=C(NCc1ccc(C)c(C)n1)c1scnc1Cl  1.94^[a]
14  CCOC(=O)C(C#N)=C(NCc1nc(C(F)(F)F)cs1)c1sccc1Br  3.37^[a]
15  CCOC(=O)C(C#N)=C(NC(C)c1ccc(C)cc1)c1cccnc1Cl (centres unmarked)  3.87^[a]
16  CCOC(=O)C(C#N)=C(NC(C)C(=O)NC)c1c(C)nn(C)c1Cl (centres unmarked)   1.7^[a]
17  CCOCC(CC)NC(=C(C#N)C(=O)OC)c1cccnc1Cl (centres unmarked)  2.76^[a]
18  CCOC(=O)C(C#N)=C(NC(C)C1CCC1)c1cn(C)nc1C(F)F (centres unmarked)  3.33^[a]
19  COC(=O)C(C#N)=C(NC(C)C(N)=O)c1sc(C)nc1C(F)(F)F (centres unmarked) [Compound 634]  1.69^[a]
20  CCNC(=O)C(C)NC(=C(C#N)C(=O)OCC)c1cccnc1Cl (centres unmarked)   2.1^[a]
21  CCOC(=O)C(C#N)=C(Nc1ccc2ncsc2c1)c1cn(C)nc1C(F)F  2.44^[a]
22  CCOC(=O)C(C#N)=C(NC(C)CN)c1ncc(C(F)(F)F)cc1Cl (racemic)  1.59^[a]
23  CCOC(=O)C(C#N)=C(NC(C)CN(C)C)c1c(C)nn(C)c1F (racemic)  0.96^[a]
24  CCOC(=O)C(C#N)=C(NC(CC(C)C)C(F)(F)F)c1cn(C)nc1C(F)F (centres unmarked)   3.8^[a]
25  CCOC(=O)C(C#N)=C(NC(C)CC)c1cn(C)nc1C(F)F (centres unmarked)  2.82^[a]
26  CCOC(=O)C(C#N)=C(NC(C)c1nccn1C)c1cccnc1Cl (centres unmarked)  0.93^[a]
27  CCOC(=O)C(C#N)=C(Nc1ccc(OC(F)F)cc1)c1sccc1Br  3.73^[a]
28  CCOC(=O)C(C#N)=C(NC(C)c1ccccn1)c1cn(C)nc1C(F)F (centres unmarked) [Compound 325]  2.39^[a]
29  CCOC(=O)C(C#N)=C(NC(C)c1cscn1)c1ccncc1F (mixture of isomers)  2.22^[a]
30  CC#CC(C)NC(=C(C#N)C(=O)OCC)c1cccnc1Cl (centres unmarked) [Compound 1052]  2.86^[a]
31  CCOC(=O)C(C#N)=C(NC(C)c1ccc(Cl)cc1)c1ccnc(Cl)c1Cl (racemic)  4.21^[a]
32  COC(=O)C(C#N)=C(NC(C)c1ccc(Cl)c(Cl)c1)c1cccnc1Cl (centres unmarked)  3.58^[a]
33  CC(NC(=C(C#N)C(=O)NC1CC1)c1cn(C)nc1C(F)F)c1ccccn1 (racemic)  1.84^[a]
34  CC(NC(=C(C#N)C(=O)N1CCOCC1)c1cccnc1Cl)c1nccs1 (centres unmarked)  1.84^[a]

----------
measurement parameters: pH 2.7
Marks after values point to notes of the source that are not given here.
measured attribute: Log P

>>> df
                                    compound    result
 0  CCOC(=O)C(C#N)=C(NC(CC)CC#N)c1cccnc1Cl (stereo not drawn) [Compound 1359]  2.51^[a]
 1  CCOC(=O)C(C#N)=C(NC(C)c1ccccc1F)c1cccnc1Cl (stereo not drawn) [Compound 1532]  3.48^[a]
 2  CCOC(=O)C(C#N)=C(NC(C)C1CCCO1)c1sccc1C(F)(F)F (mixture of isomers) [Compound 172]  3.55^[a]
 3  CCOC(=O)C(C#N)=C(NC(C)COCc1ccccc1F)c1cn(C)nc1C(F)F (stereo not drawn) [Compound 740]  3.48^[a]
 4  CCOC(=O)C(C#N)=C(NC(C)c1nccs1)c1ncc(C(F)(F)F)cc1Cl (racemic) [Compound 40]  3.37^[a]
 5  COC(=O)C(C#N)=C(NCC#N)c1sc(C)nc1C(F)(F)F [Compound 787]  2.01^[a]
 6  CCOC(=O)C(C#N)=C(NC(C)C(N)=O)c1cc(Cl)ncc1Cl (stereo not drawn) [Compound 721]  2.64^[a]
 7  CCOC(=O)C(C#N)=C(NC(C)C(C)C)c1ccncc1Br (stereo not drawn) [Compound 996]  3.33^[a]
 8  CCOC(=O)C(C#N)=C(NC(C)C1(Cl)CC1)c1sccc1C(F)(F)F (stereo not drawn) [Compound 769]  4.04^[a]
 9  CCOC(=O)C(C#N)=C(NC(C)c1ccccn1)c1ccnc(Br)c1Br (racemic) [Compound 1409]  3.11^[a]
10  CCOC(=O)C(C#N)=C(NC1CCS(=O)(=O)C1)c1cccnc1Cl (stereo not drawn) [Compound 1369]  1.84^[a]
11  CCOC(=O)C(C#N)=C(NC(C)COCc1ccccc1)c1cn(C)nc1C(F)F (stereo not drawn) [Compound 739]  3.48^[a]
12  CCOC(=O)C(C#N)=C(NC(C)C(C)C)c1cnn(C)c1C(F)F (stereo not drawn) [Compound 1301]  3.23^[a]
13  CCOC(=O)C(C#N)=C(NC(C)c1c(F)cccc1F)c1cccnc1Cl (stereo not drawn) [Compound 1535]  3.27^[a]
14  CCOC(=O)C(C#N)=C(NC1CCC1)c1ccnc(Cl)c1F [Compound 1321]  3.39^[a]
15  CCOC(=O)C(C#N)=C(NC(C)C(C)CC)c1cn(C)nc1C(Cl)Cl (stereo not drawn) [Compound 1577]   3.8^[a]
16  CCOC(=O)C(C#N)=C(NC(C)c1nc(C)cs1)c1cn(C)nc1C(F)F (stereo not drawn) [Compound 188]  2.65^[a]
17  CCOC(=O)C(C#N)=C(NC(C)C(C)C)c1ccnc(-c2ccccc2)c1Cl (stereo not drawn) [Compound 1403]  4.34^[a]
